target: HLA-A*02:03; test: IEDB peptide-MHC binding, purified MHC/competitive/radioactivity; filed as Kd, often an IC50 or EC50 that approximates it; bounds were set here for any values at or beyond the usual limits of such assays; details: source organism: Vaccinia virus WR
REPORTED_PROPERTY: pKd
To interpret pKd, take it as minus log10 of a concentration measured in moles per litre.

Quote pKd with test system HLA-A*02:03 for STTENAAYQV
5.33

Quote pKd with test system HLA-A*02:03 for ILSLETVKM
7.93

Quote pKd with test system HLA-A*02:03 for CAVNTPVSM
4.80

Quote pKd with test system HLA-A*02:03 for GLILFVLAL
6.34

Quote pKd with test system HLA-A*02:03 for FIPIIYSKA
8.74

Quote pKd with test system HLA-A*02:03 for ELSRLRYNL
6.60

Quote pKd with test system HLA-A*02:03 for ELTSNCTRTT
5.83

Quote pKd with test system HLA-A*02:03 for SLVSKHWEL
7.44

Data origin: the Immune Epitope Database (IEDB)
